target: Sigma non-opioid intracellular receptor 1 (Rattus norvegicus); assay: Displacement of (-)-[3H]pentazocine from sigma 1 receptor in rat cortical membranes after 120 mins
Sequence (Q9R0C9 whole entry): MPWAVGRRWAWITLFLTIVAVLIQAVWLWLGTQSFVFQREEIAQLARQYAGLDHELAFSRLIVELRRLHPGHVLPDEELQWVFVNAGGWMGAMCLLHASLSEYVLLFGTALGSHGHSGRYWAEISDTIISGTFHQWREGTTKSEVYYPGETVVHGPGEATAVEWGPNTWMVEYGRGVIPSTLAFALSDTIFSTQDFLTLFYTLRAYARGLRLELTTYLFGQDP
Outcome Measure: log10 Ki (log10 of the value in nM)

Molecule: O[C@H]1Cc2cccc(F)c2C[C@@H]1N1CCC(c2ccccc2)CC1
log10 Ki: 1.58
//
Molecule: O[C@@H]1Cc2cccc(I)c2C[C@H]1N1CCC(c2ccccc2)CC1 (racemic)
log10 Ki: 2.42
//
Molecule: O[C@@H]1Cc2cccc(F)c2C[C@H]1N1CCC(c2ccccc2)CC1
log10 Ki: 0.55
//
Molecule: Nc1cccc2c1CC(N1CCC(c3ccccc3)CC1)C(O)C2 (racemic)
log10 Ki: 2.81
//
Molecule: O[C@H]1Cc2cccc(OCCF)c2C[C@@H]1N1CCC(c2ccccc2)CC1
log10 Ki: 2.43
//
Molecule: OC1Cc2cccc(F)c2CC1N1CCC(c2ccccc2)CC1 (racemic)
log10 Ki: 1.12
//
Molecule: O[C@@H]1Cc2cccc(OCCF)c2C[C@H]1N1CCC(c2ccccc2)CC1
log10 Ki: 2.32

====

assay: Displacement of (-)-[3H]DTG from sigma 2 receptor in rat liver membranes after 120 mins; type: cell membranes, Membrane
In this section, each of the compounds is paired with its reported Ki.

Compound: OC1Cc2cccc(F)c2CC1N1CCC(c2ccccc2)CC1 (racemic)
Ki / nM: 229
--
Compound: O[C@@H]1Cc2cccc(F)c2C[C@H]1N1CCC(c2ccccc2)CC1
Ki / nM: 252
--
Compound: O[C@H]1Cc2cccc(F)c2C[C@@H]1N1CCC(c2ccccc2)CC1
Ki / nM: 526

====

organism: Rattus norvegicus; experiment: Selectivity ratio of Ki for sigma 1 receptor in rat cortical membranes to Ki for rat VAChT; assay type: cell membranes; settings: Membrane
Outcome Measure: Ratio Ki

Molecule: O[C@@H]1Cc2cccc(I)c2C[C@H]1N1CCC(c2ccccc2)CC1 (racemic)
Reading: 17
--
Molecule: Nc1cccc2c1CC(N1CCC(c3ccccc3)CC1)C(O)C2 (racemic)
Reading: 16
--
Molecule: OC1Cc2cccc(F)c2CC1N1CCC(c2ccccc2)CC1 (racemic)
Reading: 1.21
--
Molecule: O[C@@H]1Cc2cccc(OCCF)c2C[C@H]1N1CCC(c2ccccc2)CC1
Reading: 10.7
--
Molecule: O[C@@H]1Cc2cccc(F)c2C[C@H]1N1CCC(c2ccccc2)CC1
Reading: 0.97
--
Molecule: O[C@H]1Cc2cccc(OCCF)c2C[C@@H]1N1CCC(c2ccccc2)CC1
Reading: 4.7
--
Molecule: O[C@H]1Cc2cccc(F)c2C[C@@H]1N1CCC(c2ccccc2)CC1
Reading: 5.48
